Here the recorded cytotoxicity at 10 µM is given for each entry.
assay: Toxicity liver stage against HepG2, at 10uM; assay type: cell-based; design: test concentration 10 uM, cell line HepG2-A16-CD81EGFP; details: human, HepG2-A16-CD81EGFP cells; read-out: INHIBITION

- COMPOUND: "Cc1cc(C[C@@H]2COC[C@@H]2NC(=O)Cn2c(=O)oc3ccccc32)on1"
  cytotoxicity at 10 µM (%): -14
- COMPOUND: "COC1[C@@H]2CC[C@H]1CN(c1nc(C)nc3sccc13)C2 (stereo not given in full)"
  cytotoxicity at 10 µM (%): 34
- COMPOUND: "CCc1nc(CN2CCN(C(=O)Cc3c(C)noc3C)CC2)cs1"
  cytotoxicity at 10 µM (%): -0.549
- COMPOUND: "CCSC(C)c1nc(-c2ccc(C)nn2)no1 (stereo not given)"
  cytotoxicity at 10 µM (%): -6.24
- COMPOUND: "O=C(c1ccc(C2CCCN2)s1)N1CC=CC1 (stereo not given)"
  cytotoxicity at 10 µM (%): 1.33
- COMPOUND: "CN1CC[C@H]2CN(C(=O)c3csc(Cc4ccccc4)n3)C[C@H]21"
  cytotoxicity at 10 µM (%): -2.45
- COMPOUND: "O=C(COCc1ccccc1Cl)Nc1ccnn1CC1CCOC1 (stereo not given)"
  cytotoxicity at 10 µM (%): -1.9
- COMPOUND: "Cn1ccc(C(=O)N2CCOC(c3ccccn3)C2)cc1=O (stereo not given)"
  cytotoxicity at 10 µM (%): -31.4
- COMPOUND: "Cc1nccn1CCC1CCCCN1Cc1cccc(CCN)c1 (stereo not given)"
  cytotoxicity at 10 µM (%): 0.106
- COMPOUND: "O=C(COc1ccc2c(c1)CCC2)N1CCCC1c1ccc[nH]1 (stereo not given)"
  cytotoxicity at 10 µM (%): 6.54
- COMPOUND: "Cc1cccc(S(=O)(=O)NC(=O)CN(C)Cc2ccccc2)c1"
  cytotoxicity at 10 µM (%): -14.3
- COMPOUND: "O=C1[C@H]2CN(CC3CCOCC3)C[C@H]2CN1c1ccsc1"
  cytotoxicity at 10 µM (%): 8.52
- COMPOUND: "Cn1ccnc1CN1CCCN(C(=O)c2ccc3[nH]cnc3c2)CC1"
  cytotoxicity at 10 µM (%): -0.565
- COMPOUND: "O=C1OCCN1CCS(=O)(=O)c1cccc(Br)c1"
  cytotoxicity at 10 µM (%): 6.29
- COMPOUND: "OCCN1CC2(CCN(CC3CC3)CC2)c2ccccc21"
  cytotoxicity at 10 µM (%): 6.4
- COMPOUND: "CCN(CC(=O)Nc1cc(Cl)ccc1C)C(=O)c1ccc(=O)[nH]n1"
  cytotoxicity at 10 µM (%): -0.898
- COMPOUND: "CCC(C)(C)NC(=O)Nc1nnc(-c2ccccn2)s1"
  cytotoxicity at 10 µM (%): 6.39
- COMPOUND: "Cc1nccc(N[C@H]2CN(CCS(C)(=O)=O)C[C@@H]2C2CC2)n1"
  cytotoxicity at 10 µM (%): 0.34
- COMPOUND: "CN(C)C(=O)CN1C[C@H]2CC[C@@H](C1)N(Cc1cccc(Cl)c1Cl)C2"
  cytotoxicity at 10 µM (%): -5.3
- COMPOUND: "COCCN(Cc1ccc(F)cc1Cl)C(=O)c1cc(C)n[nH]1"
  cytotoxicity at 10 µM (%): 0.886
- COMPOUND: "CC(C)c1nc(CNC2CCN(C(=O)OC(C)(C)C)CC2)cs1"
  cytotoxicity at 10 µM (%): -1.72
- COMPOUND: "Cc1cccc(NC(=O)Nc2c[nH]c(=O)[nH]c2=O)c1C"
  cytotoxicity at 10 µM (%): 8.2
- COMPOUND: "O=C(NCCSCc1ccc(Br)s1)C1CCCN(C(=O)c2cccs2)C1 (stereo not given)"
  cytotoxicity at 10 µM (%): -1.79
- COMPOUND: "CC1(C)CN(C(CNS(C)(=O)=O)c2ccc(Cl)cc2)CCO1 (stereo not given)"
  cytotoxicity at 10 µM (%): 9.12
- COMPOUND: "CCc1nc(CN(C(C)=O)C2CCN(Cc3csc(C)n3)C2)no1 (stereo not given)"
  cytotoxicity at 10 µM (%): -12.8
- COMPOUND: "COc1ccc(CNC(C)Cn2cccn2)c(OC)c1OC (stereo not given)"
  cytotoxicity at 10 µM (%): -8.17
- COMPOUND: "CN(C)C(=O)c1cccc(CN2CCOC(Cn3cncn3)C2)c1 (stereo not given)"
  cytotoxicity at 10 µM (%): -3.75
- COMPOUND: "Cc1ccc(CN(C(=O)C(C)S(C)(=O)=O)C2CC2)cc1C (stereo not given)"
  cytotoxicity at 10 µM (%): 3.28
- COMPOUND: "O=C(c1csc(-c2nnc[nH]2)n1)N1CCCCC1Cn1cccn1 (stereo not given)"
  cytotoxicity at 10 µM (%): -4.49
- COMPOUND: "CC(=O)N1CCN(C(=O)CCn2c(C)nc3ccccc3c2=O)CC1"
  cytotoxicity at 10 µM (%): -4.81
- COMPOUND: "O=C(NC1CCS(=O)(=O)C1)c1cc(Sc2ncccn2)ccn1 (stereo not given)"
  cytotoxicity at 10 µM (%): 12
- COMPOUND: "Cc1nc(NC2CCS(=O)(=O)CC2)cc(C2CCCNC2)n1 (stereo not given)"
  cytotoxicity at 10 µM (%): -11
- COMPOUND: "CC(C)[C@H](NC(=O)c1cccc(CCC(C)(C)O)c1)C(N)=O"
  cytotoxicity at 10 µM (%): -0.471
- COMPOUND: "Cc1ccccc1C(=O)N1CCC2(CCC(C(=O)NCC3CC3)O2)CC1 (stereo not given)"
  cytotoxicity at 10 µM (%): -3.28
- COMPOUND: "CC(C)CN1CCC2(CC1)CC(NS(C)(=O)=O)c1ccccc1O2 (stereo not given)"
  cytotoxicity at 10 µM (%): -4.44
- COMPOUND: "CCN(CC(=O)N(C)C)C(=O)c1ccc(-c2nc(C)cs2)cc1"
  cytotoxicity at 10 µM (%): 6.98
- COMPOUND: "COCc1nc(Cn2ncn3cccc3c2=O)no1"
  cytotoxicity at 10 µM (%): -8.98
- COMPOUND: "CC(C)N1CCC(CC(=O)NCc2cc(O)ncn2)CC1"
  cytotoxicity at 10 µM (%): 7.81
- COMPOUND: "CC(C)C(=O)N1CC[C@H]2N(C)CC[C@@]2(C(=O)Nc2ccccc2)CC1"
  cytotoxicity at 10 µM (%): -107
- COMPOUND: "Fc1ccc(-c2c[nH]c([C@@H]3COCCN3)n2)cc1"
  cytotoxicity at 10 µM (%): -0.0368
